Values were extracted from patent US20030104423A1.

- SUBJECT OF TEST: T1, σ70, native, untagged (pLN12) (Escherichia coli, UniProt P00579 1-613)
- T1 construct: range 1-613; also called native ?^70
- PROTOCOL SUMMARY: Ni-NTA co-immobilization, SDS-PAGE
ASSAY METRIC: binding result

>>> meas_value("His6-tagged β′100-309 (pTA533) (enzyme) ERMGHIELASPTAHIWFLKSLPSRIGLLLDMPLRDIERVLYFESYVVIEGGMTNLERQQILTEEQYLDALEEFGDEFDAKMGAEAIQALLKSMDLEQECEQLREELNETNSETKRKKLTKRIKLLEAFVQSGNKPEWMILTVLPVLPPDLRPLVPLDGGRFATSDLNDLYRRVINRNNRLKRLLDLAAPDIIVRNEKRMLQEAVDALLDN")
"binds"
>>> meas_value("His6-tagged β′178-309 (pTA537) (enzyme) AKMGAEAIQALLKSMDLEQECEQLREELNETNSETKRKKLTKRIKLLEAFVQSGNKPEWMILTVLPVLPPDLRPLVPLDGGRFATSDLNDLYRRVINRNNRLKRLLDLAAPDIIVRNEKRMLQEAVDALLDN")
"binds"
